target: Recombinant human Cbl-b (aa 36-427) (Homo sapiens (Human), UniProt Q13191); experiment: Cbl-b Biochemical Assay (TR-FRET); conditions: read-out: TR-FRET hCbl-b IC50
Sequence (Q13191 36-427): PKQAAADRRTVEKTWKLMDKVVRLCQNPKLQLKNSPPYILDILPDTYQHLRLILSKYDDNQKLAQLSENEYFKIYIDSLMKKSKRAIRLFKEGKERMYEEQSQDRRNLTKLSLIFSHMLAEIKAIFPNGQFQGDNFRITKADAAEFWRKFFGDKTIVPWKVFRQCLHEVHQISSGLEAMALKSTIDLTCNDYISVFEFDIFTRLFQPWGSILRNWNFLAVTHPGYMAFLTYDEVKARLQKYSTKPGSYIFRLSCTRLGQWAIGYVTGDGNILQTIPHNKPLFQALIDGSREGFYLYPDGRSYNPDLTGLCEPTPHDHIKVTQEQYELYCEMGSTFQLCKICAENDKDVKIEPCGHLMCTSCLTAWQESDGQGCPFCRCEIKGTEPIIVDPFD
measurement_label: IC50

Asked: Any idea what IC50 came out for CCNc1cc(-c2ccccc2-c2nncn2C)cc(N2Cc3c(cc(CN4CCO[C@H](C)C4)cc3C(F)(F)F)C2=O)n1 [AN-1] on Recombinant human Cbl-b (aa 36-427) (Homo sapiens (Human), UniProt Q13191)?
Given back: ≤ 200 nM

Asked: Form field - read-out: IC50; system: Recombinant human Cbl-b (aa 36-427) (Homo sapiens (Human), UniProt Q13191); submitted item: CCNc1cc(-c2c(-c3nncn3C)cnn2C)cc(N2Cc3c(cc(CN)cc3C(F)(F)F)C2=O)n1 [ACG-3]
Given back: ≤ 200 nM

Asked: Hi! What's the reported IC50 for COc1ccc([C@@H](C)Cc2nncn2C)cc1N1Cc2c(cc(CN3CCCC3)cc2C(F)(F)F)C1=O [Example F-9] on Recombinant human Cbl-b (aa 36-427) (Homo sapiens (Human), UniProt Q13191)?
Given back: 1000 to 10000 nM

Asked: Please tell me: IC50 of CCNc1cc(-c2c(-c3nncn3C)cnn2C)cc(N2Cc3c(cc(CN4CCC[C@@H](C)C4)cc3C(F)(F)F)C2=O)n1 [ACE-1] , system Recombinant human Cbl-b (aa 36-427) (Homo sapiens (Human), UniProt Q13191)?
Given back: ≤ 200 nM

Asked: Param readout= IC50; system= Recombinant human Cbl-b (aa 36-427) (Homo sapiens (Human), UniProt Q13191); entry= Cn1cnnc1-c1ccccc1-c1cc(C(=O)O)cc(N2Cc3c(cccc3C(F)(F)F)C2=O)c1 [Example I-1] ; returns value.
Given back: 10000 to 50000 nM

Asked: Param readout= IC50; system= Recombinant human Cbl-b (aa 36-427) (Homo sapiens (Human), UniProt Q13191); entry= Cn1cnnc1-c1ccccc1-c1cc(N2Cc3c(cccc3C(F)(F)F)C2=O)cc2cc[nH]c12 [AHY-5] ; returns value.
Given back: 10000 to 50000 nM

Asked: Missing value: IC50, Recombinant human Cbl-b (aa 36-427) (Homo sapiens (Human), UniProt Q13191), entry CCNc1cc(-c2c(-c3nncn3C)cnn2C)cc(N2Cc3c(cc(CN4CC(F)C4)cc3C(F)(F)F)C2=O)n1 [ABN-2] . Fill in?
Given back: ≤ 200 nM

Asked: Request - read-out IC50 | tested on Recombinant human Cbl-b (aa 36-427) (Homo sapiens (Human), UniProt Q13191) | molecule CCNc1cc(-c2c(-c3nncn3C)cnn2C)cc(N2Cc3c(cc(CO[C@@H]4CCC[C@@H]4O)cc3C(F)(F)F)C2=O)n1 [ADH-1]
Given back: ≤ 200 nM

Asked: Request - read-out IC50 | tested on Recombinant human Cbl-b (aa 36-427) (Homo sapiens (Human), UniProt Q13191) | molecule C[C@H](NCc1ccc2c(c1)C(=O)N(c1cc(-c3ccc(C#N)cc3-c3nncn3C)cc(C3CC3)n1)C2)C1CCC1 [AOK-2]
Given back: ≤ 200 nM

Asked: Query IC50 on Recombinant human Cbl-b (aa 36-427) (Homo sapiens (Human), UniProt Q13191) for CCOc1cc(-c2ccc(F)cc2-c2nncn2C)cc(N2Cc3c(OC)cc(CO)cc3C2=O)n1 [AJC-1]
Given back: ≤ 200 nM

Asked: # get_value(readout= IC50, system= Recombinant human Cbl-b (aa 36-427) (Homo sapiens (Human), UniProt Q13191)) for CCOc1cc(-c2ccc(F)cc2-c2nncn2C)cc(N2Cc3c(cc(COCCO)cc3C(F)(F)F)C2=O)n1 [AHQ-4]
Given back: ≤ 200 nM

Asked: Could you share what IC50 was measured for Cn1cnnc1-c1cc(C#N)ccc1-c1cc(C2CC2)nc(N2Cc3c(F)cc(CN4CC[C@H]5C[C@H]54)cc3C2=O)c1 [AMX-3] , tested on Recombinant human Cbl-b (aa 36-427) (Homo sapiens (Human), UniProt Q13191)?
Given back: ≤ 200 nM

Asked: What value of IC50 on Recombinant human Cbl-b (aa 36-427) (Homo sapiens (Human), UniProt Q13191) does CCNc1cc(-c2ccccc2-c2nncn2C)cc(N2Cc3c(cc(CN4CCC5(CC5)C4)cc3C(F)(F)F)C2=O)n1 [ABR-1] have?
Given back: ≤ 200 nM

Asked: IC50 of Cn1cnnc1-c1ccccc1-c1cccc(NC(=O)c2cc(OCCN3CCCC3)nc(C3CC3)n2)c1 [ABK-7] on Recombinant human Cbl-b (aa 36-427) (Homo sapiens (Human), UniProt Q13191)?
Given back: 200 to 1000 nM

Asked: Please provide the recorded IC50 for Cn1cnnc1-c1cc(C#N)ccc1-c1cc(C2CC2)nc(N2Cc3ccc(CNCC4(C)COC4)cc3C2=O)c1 [AMU-2] , tested on Recombinant human Cbl-b (aa 36-427) (Homo sapiens (Human), UniProt Q13191).
Given back: ≤ 200 nM
